Target: human GLP-1 receptor (GLP-1R) (human, UniProt P43220 24-463)
Assay: cell-based or functional assay
Square brackets hold non-standard residues; d marks the D form. Ends that are not written are not given here. αMePhe(2-F) = C[C@](N)(Cc1ccccc1F)C(=O)O; αMeF = C[C@](N)(Cc1ccccc1)C(=O)O; Aib = CC(C)(N)C(=O)O
hGLP1R cAMP Rel EC50 by entry:
// note: answer is a bare numeric in nM

Sample records with hGLP1R cAMP Rel EC50:
{"binder": "Y[Aib]EGT[αMePhe(2-F)]TSDYSIXLDEKAQ[Aib]EFIPYLIEGGPSSGAPPPS-NH2 (not fully specified (residues 13, 17); printed as Y-Aib-EGT-αMeF(2F)-TSDYSI-αMeF-LDEK((2-[2-(2-Amino-ethoxy)-ethoxy]-acetyl)2-(γ-Glu)-CO-(CH2)18-CO2H)AQ-Aib-EFIPYLIEGGPSSGAPPPS-NH2) [Example 151]", "measurement unit": "nM", "hGLP1R cAMP Rel EC50": 1.6}
{"binder": "YXEGTXTSDHSIXLDXKAQXTFIXYLIEGGPSSGAPPPS (Y-Aib-EGT-αMeF(2F)-TSDHSI-αMeF-LD-Orn-K((2-[2-(2-Amino-ethoxy)-ethoxy]-acetyl)2-(γ-Glu)-CO-(CH2)18-CO2H)AQ-Aib-TFI-(D-Glu)-YLIEGGPSSGAPPPS-NH2) [Example 171]", "measurement unit": "nM", "hGLP1R cAMP Rel EC50": 0.75}

Q: Assign hGLP1R cAMP Rel EC50 to the following record: Y[Aib]EGT[αMeF]TSDYSIXLDKKAQ[Aib]IFIEYLIEGGPSSGAPPPS-NH2 (not fully specified (residues 13, 17); printed as Y-Aib-EGT-αMeF-TSDYSI-αMeF-LDKK((2-[2-(2-Amino-ethoxy)-ethoxy]-acetyl)2-(γ-Glu)-CO-(CH2)18-CO2H)AQ-Aib-IFIEYLIEGGPSSGAPPPS-NH2) [Example 141]
A: 0.0975
